# Tested on: PF3D7_0420300 AP2 domain 1 (GST-tagged)
# experiment-summary: gcPBM binding intensity (ln(normalized median fluorescence intensity)); higher = stronger DNA binding
The full ranking holds about 25,000 sequences; the median of “ln(normalized median fluorescence intensity)” is about 9.3, and the highest 2% start at about 10. This is one part of a sample in which the highest values are shown more often than they occur.
parameter-measured: gcPBM binding intensity (ln)
# output: bare number, no unit

TATAAATATTTATACACACACATATATTTATATATC [CACACA_site6366]; 9.82
TATATAAATATACACCCACACACATATATATATATA [CACACA_site9247]; 9.63

Enter recorded gcPBM binding intensity (ln) with PF3D7_0420300 AP2 domain 1 (GST-tagged) for TACACGCTAAAATACACACACACACCCACATATATA [CACACA_site4153] here. 10.2

Provide the reported gcPBM binding intensity (ln) (system: PF3D7_0420300 AP2 domain 1 (GST-tagged)) for ATATGTTTATTAAATGCATGTCAAGACTTAAGATAT [TGCATGCA_site329] 9.24

Please report the measured gcPBM binding intensity (ln) for AAAAAAAATACATACACACACACACCCACATATATA [CACACA_site3561] tested on PF3D7_0420300 AP2 domain 1 (GST-tagged). 10.1

###

# Test system: PF3D7_0420300 AP2 domain 1 (GST-tagged)
# experiment-summary: gcPBM binding intensity (ln(normalized median fluorescence intensity)); higher = stronger DNA binding
Whole data set: some 25,000 sequences, median “ln(normalized median fluorescence intensity)” near 9.3, cut for the highest 2% near 10. The sample holds the highest values, similar sequences and a random draw of the others, so the mix is not that of the screen.
parameter-measured: gcPBM binding intensity (ln)
When you answer, write just the number.

ATAAAGCACACCGACACACACATATATATATATATA [CACACA_site1047]; 9.8

Identify measured gcPBM binding intensity (ln) corresponding to TTTTATAATTTATCTAAAAAAAAATAAAATAAAATG [TGCATGCA_negctrl_site429] 8.67

Identify measured gcPBM binding intensity (ln) associated with GGGAAAATAAATAAAGTGCAGATATTAAAAGTTGTA 9.41

Return gcPBM binding intensity (ln) for the following sequence: AATATTTATTTTATATGTACATAATTTATTTTTAAT [XGTACX_site776] 9.26

State its gcPBM binding intensity (ln): AACATATACACGAACACACACACATATATATATATA [CACACA_site502] 10.1

Return the recorded gcPBM binding intensity (ln) value; entry: ATAGTAATAGAATGATTGCACTTAAATTTTCCCTCT 9.19

Give the reported gcPBM binding intensity (ln) for this sequence. TATAAACATTATAAATGTACAAATATATATATATAT [XGTACX_site3218] 9.28

Answer with reported gcPBM binding intensity (ln) of CTTGTATATAAACACACACACACTTTCTTTTTTTAA [CACACA_site8602] 9.91

Give reported gcPBM binding intensity (ln) value for TATATAGTAATATATACACACACTTGTCTTGTAAAA [CACACA_site990] 9.56

Check the records and state gcPBM binding intensity (ln) for TATACTCATGGACACACACACATACACAGACATACA [CACACA_site5024] 9.92

// Input: AACTTGTATATATACACACACACACTGTCTTTTTTT [CACACA_site1963] . Output its gcPBM binding intensity (ln) only. 10.2

Return gcPBM binding intensity (ln) for the following sequence: TATTTTCTCTTAAAAAGTACTCATATATACATTTAT [XGTACX_site7748] 9.07

Look up and state reported gcPBM binding intensity (ln) for TATATAAATATTCGTAGTACAATACAATTATAAGTA [XGTACX_site3068] 9.15
